target: Gamma-aminobutyric acid receptor subunit gamma-1 (Rattus norvegicus); experiment: In vitro inhibition of [35S]-TBPS binding to Gamma-aminobutyric acid A receptor in rat brain cortical membranes in the presence of 5 uM GABA (low affinity); assay type: functional, cell membranes, Membrane
Sequence (P23574 whole entry): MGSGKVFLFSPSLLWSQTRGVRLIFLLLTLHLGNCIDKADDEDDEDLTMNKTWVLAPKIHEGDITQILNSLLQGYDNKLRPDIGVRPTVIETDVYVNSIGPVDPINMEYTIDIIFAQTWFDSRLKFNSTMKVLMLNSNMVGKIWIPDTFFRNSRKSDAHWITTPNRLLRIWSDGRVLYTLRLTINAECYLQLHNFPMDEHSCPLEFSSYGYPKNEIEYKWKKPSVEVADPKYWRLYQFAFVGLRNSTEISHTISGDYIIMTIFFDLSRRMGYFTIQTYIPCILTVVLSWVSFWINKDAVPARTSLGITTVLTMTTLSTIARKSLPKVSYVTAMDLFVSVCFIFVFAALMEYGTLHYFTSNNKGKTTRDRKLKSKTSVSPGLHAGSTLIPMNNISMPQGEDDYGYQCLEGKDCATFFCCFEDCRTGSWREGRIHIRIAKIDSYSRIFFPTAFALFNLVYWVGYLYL
Readout Type: IC50 (µM)
Give your result in µM as a bare value.

[ask] Entry `CC(=O)[C@H]1CC[C@H]2[C@@H]3CC[C@@H]4C[C@@](O)(C#Cc5ccccc5O)CC[C@]4(C)[C@H]3CC[C@]12C` : reported IC50 = ?
[reply] 5.1

* * *

system: Mus musculus; assay: Percent of animals (n=8) not exhibiting PTZ-induced ( Pentylentetrazol protection) seizures 10 min following a 10 mg/kg ip dose of steroid.; type: functional; conditions: route intraperitoneal
Quick reference: PTZ protection of the listed items.
The figure you give is taken to be in %; do not add the unit.

# annotated cases, reported PTZ protection shown
{"Smiles String": "CC(=O)[C@H]1CC[C@H]2[C@@H]3CC[C@@H]4C[C@@](O)(C#Cc5ccc(Cl)cc5)CC[C@]4(C)[C@H]3CC[C@]12C", "Study System": "Mus musculus", "Assay Value": 0}
{"Smiles String": "CC(=O)[C@H]1CC[C@H]2[C@@H]3CC[C@@H]4C[C@@](O)(CCc5ccccc5)CC[C@]4(C)[C@H]3CC[C@]12C", "Study System": "Mus musculus", "Assay Value": 0}
{"Smiles String": "COc1ccccc1C#C[C@@]1(O)CC[C@@]2(C)[C@H](CC[C@@H]3[C@@H]2CC[C@]2(C)[C@@H](C(C)=O)CC[C@@H]32)C1", "Study System": "Mus musculus", "Assay Value": 0}
{"Smiles String": "CC(=O)[C@H]1CC[C@H]2[C@@H]3CC[C@@H]4C[C@@](O)(C#Cc5ccc([N+](=O)[O-])cc5)CC[C@]4(C)[C@H]3CC[C@]12C", "Study System": "Mus musculus", "Assay Value": 13}
{"Smiles String": "CCOC(=O)c1ccc(C#C[C@@]2(O)CC[C@@]3(C)[C@H](CC[C@@H]4[C@@H]3CC[C@]3(C)[C@@H](C(C)=O)CC[C@@H]43)C2)cc1", "Study System": "Mus musculus", "Assay Value": 19}

Now for the compound whose PTZ protection we want.
[ask] Quick check: PTZ protection of `CC(=O)[C@H]1CC[C@H]2[C@@H]3CC[C@@H]4C[C@@](O)(C#Cc5ccc6c(c5)OCO6)CC[C@]4(C)[C@H]3CC[C@]12C` ?
[reply] 13

Cited source: ChEMBL document CHEMBL1130204
